Listed below: Ratio of PDL1:CD28 values for each entry.
molecular target: human PD-L1 (human) (UniProt Q9NZQ7); assay: flow cytometry; PD-L1 MFI over CD28 MFI of the same protein
Sequence (Q9NZQ7 19-290): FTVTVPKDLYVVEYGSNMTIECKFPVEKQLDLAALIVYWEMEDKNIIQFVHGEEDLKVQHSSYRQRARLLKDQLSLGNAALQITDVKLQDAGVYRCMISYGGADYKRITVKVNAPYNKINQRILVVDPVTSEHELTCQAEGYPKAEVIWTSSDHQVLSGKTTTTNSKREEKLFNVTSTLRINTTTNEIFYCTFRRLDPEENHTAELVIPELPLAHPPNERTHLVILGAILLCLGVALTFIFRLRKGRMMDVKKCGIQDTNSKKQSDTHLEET
measuredEndpoint: Ratio of PDL1:CD28

[
  {
    "binder": "variant CD80 IgV-Fc E35D/K89N (Fc fusion) VIHVTKEVKEVATLSCGHNVSVEELAQTRIYWQKDKKMVLTMMSGDMNIWPEYKNRTIFDITNNLSIVILALRPSDEGTYECVVLKYENDAFKREHLAEVTLSVKAD",
    "quantitativeReadout": 3.2
  },
  {
    "binder": "variant CD80 IgV-Fc E35D/M47V (Fc fusion) VIHVTKEVKEVATLSCGHNVSVEELAQTRIYWQKDKKMVLTMMSGDVNIWPEYKNRTIFDITNNLSIVILALRPSDEGTYECVVLKYEKDAFKREHLAEVTLSVKAD",
    "quantitativeReadout": 13.6
  },
  {
    "binder": "variant CD80 IgV-Fc E35D/V68M/L85Q (Fc fusion) VIHVTKEVKEVATLSCGHNVSVEELAQTRIYWQKDKKMVLTMMSGDMNIWPEYKNRTIFDITNNLSIMILALRPSDEGTYECVVQKYEKDAFKREHLAEVTLSVKAD",
    "quantitativeReadout": 78.4
  },
  {
    "binder": "variant CD80 IgV-Fc E35D/D46V/M47V/N48K/V68M (Fc fusion) VIHVTKEVKEVATLSCGHNVSVEELAQTRIYWQKDKKMVLTMMSGVVKIWPEYKNRTIFDITNNLSIMILALRPSDEGTYECVVLKYEKDAFKREHLAEVTLSVKAD",
    "quantitativeReadout": 23.9
  },
  {
    "binder": "variant CD80 IgV-Fc M47V/V68M (Fc fusion) VIHVTKEVKEVATLSCGHNVSVEELAQTRIYWQKEKKMVLTMMSGDVNIWPEYKNRTIFDITNNLSIMILALRPSDEGTYECVVLKYEKDAFKREHLAEVTLSVKAD",
    "quantitativeReadout": 13.1
  },
  {
    "binder": "variant CD80 IgV-Fc M47V/N48K/K89N (Fc fusion) VIHVTKEVKEVATLSCGHNVSVEELAQTRIYWQKEKKMVLTMMSGDVKIWPEYKNRTIFDITNNLSIVILALRPSDEGTYECVVLKYENDAFKREHLAEVTLSVKAD",
    "quantitativeReadout": 6.5
  },
  {
    "binder": "variant CD80 IgV-Fc E35D/D46V/M47L/L85Q (Fc fusion) VIHVTKEVKEVATLSCGHNVSVEELAQTRIYWQKDKKMVLTMMSGVLNIWPEYKNRTIFDITNNLSIVILALRPSDEGTYECVVQKYEKDAFKREHLAEVTLSVKAD",
    "quantitativeReadout": 28.1
  },
  {
    "binder": "variant CD80 IgV-Fc E35D/M47V/K89N (Fc fusion) VIHVTKEVKEVATLSCGHNVSVEELAQTRIYWQKDKKMVLTMMSGDVNIWPEYKNRTIFDITNNLSIVILALRPSDEGTYECVVLKYENDAFKREHLAEVTLSVKAD",
    "quantitativeReadout": 8.6
  }
]
